- Experiment Notes: Partition coefficient between n-octanol and water or Tris buffer
- Format: physicochemical
- Condition: n-octanol/water; Octanol/water; coligands Tricine-TPPTS
Measurement Type: logD
Write the number on its own, no unit after it.

Recorded logD of CC(C)C[C@H]1C(=O)N[C@H](C(=O)N[C@@H](CCCNC(=N)N)C(=O)NCCNC(=O)c2ccc(N[N]=[Tc]345([PH](c6cccc(S(=O)(=O)O)c6)(c6cccc(S(=O)(=O)O)c6)c6cccc(S(=O)(=O)O)c6)[O]CC(CO)(C[O]3)[N]4CC(=O)[O]5)nc2)Cc2ccc(cc2)OCCC[C@@H]1C(=O)NO [^99mTc-1] , please. -4

###

- Target System: UniProt:P14780
- Sequence (P14780 107-707 limits assumed): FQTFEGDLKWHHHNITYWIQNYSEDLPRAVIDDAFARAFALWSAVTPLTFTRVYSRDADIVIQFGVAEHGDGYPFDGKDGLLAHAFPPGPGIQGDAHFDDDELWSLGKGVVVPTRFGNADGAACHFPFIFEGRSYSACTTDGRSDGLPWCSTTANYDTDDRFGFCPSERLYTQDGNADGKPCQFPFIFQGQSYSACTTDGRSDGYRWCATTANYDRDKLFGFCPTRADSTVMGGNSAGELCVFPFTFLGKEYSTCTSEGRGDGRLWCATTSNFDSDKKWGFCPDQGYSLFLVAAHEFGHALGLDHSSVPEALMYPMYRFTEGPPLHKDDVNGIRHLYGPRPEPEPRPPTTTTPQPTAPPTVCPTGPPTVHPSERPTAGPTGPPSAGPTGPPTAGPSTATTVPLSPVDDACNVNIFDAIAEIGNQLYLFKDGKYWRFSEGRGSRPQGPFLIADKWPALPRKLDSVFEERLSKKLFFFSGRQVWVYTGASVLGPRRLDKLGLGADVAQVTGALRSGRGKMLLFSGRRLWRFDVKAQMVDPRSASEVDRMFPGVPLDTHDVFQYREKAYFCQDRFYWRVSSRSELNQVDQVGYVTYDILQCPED
- Experiment Notes: MMP inhibition assay, fluorogenic substrate cleavage (Ki)
Measurement Type: pKi
# reply with the number alone; pKi is -log10 of concentration in mol/L

For the compound `CC(C)C[C@H]1C(=O)N[C@H](C(=O)O)Cc2ccc(cc2)OCCC[C@@H]1C(=O)NO` , what pKi is on record? 7.22

###

- Target System: rhMMP-12 (Homo sapiens, UniProt P39900)
- Sequence (P39900 106-470): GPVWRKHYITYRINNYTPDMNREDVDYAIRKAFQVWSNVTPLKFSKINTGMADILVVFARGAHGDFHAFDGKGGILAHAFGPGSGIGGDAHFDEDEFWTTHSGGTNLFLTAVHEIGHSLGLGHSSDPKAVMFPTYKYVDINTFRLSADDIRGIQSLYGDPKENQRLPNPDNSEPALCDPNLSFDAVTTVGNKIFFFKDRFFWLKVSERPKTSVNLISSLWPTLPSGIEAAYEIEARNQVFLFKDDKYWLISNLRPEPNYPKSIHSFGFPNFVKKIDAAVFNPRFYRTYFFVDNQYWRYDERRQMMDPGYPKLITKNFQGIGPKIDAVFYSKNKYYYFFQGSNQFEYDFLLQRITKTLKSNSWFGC
- Experiment Notes: MMP inhibition assay, fluorogenic substrate cleavage (Ki)
- Condition: read-out: Ki rhMMP-12; mean ± SE
Measurement Type: pKi
Scale: pKi equals -log10([C]), with [C] in mol/L.

{"columns": ["Compound", "Measurement Type", "Observed Value"],
 "data": [
  ["CNC(=O)[C@H](CCCNC(=N)N)NC(=O)[C@@H]1Cc2ccc(cc2)OCCC[C@H](C(=O)NO)[C@@H](CC(C)C)C(=O)N1", "pKi", 9.00],
  ["CC(C)CC1C(=O)NC(C(=O)NCCOCCOCCOCCF)Cc2ccc(cc2)OCCCC1C(=O)NO (stereo not drawn)", "pKi", 8.68]
]}

Now consider a different compound.
Quick check: pKi on rhMMP-12 (Homo sapiens, UniProt P39900), item CC(C)CC1C(=O)NC(C(=O)NC(CCCNC(=N)N)C(=O)NCCNC(=O)c2ccc(NN)nc2)Cc2ccc(cc2)OCCCC1C(=O)NO (stereo not drawn) ? 8.66

###

- Target System: rhMMP-13 (Homo sapiens)
- Experiment Notes: MMP inhibition assay, fluorogenic substrate cleavage (Ki)
- Condition: read-out: Ki rhMMP-13; mean ± SE
Measurement Type: pKi
Value format note: pKi is -log10 of concentration (mol/L); just state the number.

Field: example entries. Status: answers known.
{"columns": ["Compound", "pKi"],
 "data": [
  ["CC(C)CC1C(=O)NC(C(=O)NC(CCCNC(=N)N)C(=O)NCCNC(=O)c2ccc(NN)nc2)Cc2ccc(cc2)OCCCC1C(=O)NO (stereo not drawn) [Compound 1]", 7.77],
  ["CNC(=O)[C@H](Cc1c[nH]c2ccccc12)NC(=O)[C@@H](CC(=O)NO)CC(C)C [GM-6001, reference compound]", 9.52]
]}

Let us examine a further case.
What pKi value was documented for this compound, CNC(=O)[C@H](CCCNC(=N)N)NC(=O)[C@@H]1Cc2ccc(cc2)OCCC[C@H](C(=O)NO)[C@@H](CC(C)C)C(=O)N1 [Compound 19] ? 7.82

###

- Target System: rhMMP-2 (Homo sapiens)
- Sequence (P08253 110-660): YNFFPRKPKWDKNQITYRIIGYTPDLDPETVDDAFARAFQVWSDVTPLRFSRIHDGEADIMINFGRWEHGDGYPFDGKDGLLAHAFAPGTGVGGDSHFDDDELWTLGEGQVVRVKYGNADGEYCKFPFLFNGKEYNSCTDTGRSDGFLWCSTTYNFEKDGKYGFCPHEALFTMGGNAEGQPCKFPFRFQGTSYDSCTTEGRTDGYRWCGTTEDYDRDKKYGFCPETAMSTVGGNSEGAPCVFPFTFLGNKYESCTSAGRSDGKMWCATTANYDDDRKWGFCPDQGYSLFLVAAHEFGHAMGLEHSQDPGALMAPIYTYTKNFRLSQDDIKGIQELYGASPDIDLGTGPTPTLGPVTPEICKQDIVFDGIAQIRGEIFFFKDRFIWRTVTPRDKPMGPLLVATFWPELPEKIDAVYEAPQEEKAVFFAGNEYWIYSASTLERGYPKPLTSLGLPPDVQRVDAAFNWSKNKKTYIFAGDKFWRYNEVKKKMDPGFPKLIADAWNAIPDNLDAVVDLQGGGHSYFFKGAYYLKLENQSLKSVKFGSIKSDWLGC
- Experiment Notes: MMP inhibition assay, fluorogenic substrate cleavage (Ki)
Measurement Type: Ki (nM)
Reply with just the number (in nM).

Param item = CC(C)C[C@H]1C(=O)N[C@H](C(=O)O)Cc2ccc(cc2)OCCC[C@@H]1C(=O)NO [Compound 20] ; retrieve measured Ki. 101

Reference source: patent US11286251B2
